Target: Jak2 (UniProt O60674)
Sequence (O60674 whole entry, looked up): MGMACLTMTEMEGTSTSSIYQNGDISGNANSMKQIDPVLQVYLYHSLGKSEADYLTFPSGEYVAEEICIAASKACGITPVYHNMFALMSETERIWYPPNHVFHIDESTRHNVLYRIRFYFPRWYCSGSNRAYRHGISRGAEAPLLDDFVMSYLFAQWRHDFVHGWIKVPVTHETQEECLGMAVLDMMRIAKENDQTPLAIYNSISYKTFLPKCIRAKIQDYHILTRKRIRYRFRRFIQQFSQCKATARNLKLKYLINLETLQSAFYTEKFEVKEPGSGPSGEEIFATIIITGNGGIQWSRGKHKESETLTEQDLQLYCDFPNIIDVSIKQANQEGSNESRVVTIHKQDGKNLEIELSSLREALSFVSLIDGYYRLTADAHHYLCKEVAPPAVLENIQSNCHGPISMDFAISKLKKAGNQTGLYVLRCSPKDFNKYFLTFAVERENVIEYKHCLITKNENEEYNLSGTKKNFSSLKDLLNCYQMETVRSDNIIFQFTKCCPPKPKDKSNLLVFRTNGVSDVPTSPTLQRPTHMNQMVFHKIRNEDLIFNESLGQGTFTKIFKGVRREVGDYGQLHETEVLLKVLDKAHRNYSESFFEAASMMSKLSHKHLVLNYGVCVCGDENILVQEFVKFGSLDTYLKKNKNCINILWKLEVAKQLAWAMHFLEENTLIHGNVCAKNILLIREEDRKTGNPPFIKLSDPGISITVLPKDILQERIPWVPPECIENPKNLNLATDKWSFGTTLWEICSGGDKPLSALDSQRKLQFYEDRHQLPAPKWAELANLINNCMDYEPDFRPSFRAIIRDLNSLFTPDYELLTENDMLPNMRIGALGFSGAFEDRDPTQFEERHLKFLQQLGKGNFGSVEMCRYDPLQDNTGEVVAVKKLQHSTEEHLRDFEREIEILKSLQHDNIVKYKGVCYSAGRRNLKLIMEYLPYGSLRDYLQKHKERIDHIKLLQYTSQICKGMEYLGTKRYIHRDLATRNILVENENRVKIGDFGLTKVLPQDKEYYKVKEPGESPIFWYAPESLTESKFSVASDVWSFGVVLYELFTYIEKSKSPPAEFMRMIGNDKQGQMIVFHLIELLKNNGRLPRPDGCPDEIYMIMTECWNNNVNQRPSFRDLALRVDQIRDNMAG
Assay: phosphorylation enrichment, bacterial display (enrichment ratio); higher = better substrate or ligand; peptides without Tyr show the background;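 note: 11-residue human phosphosite peptides and single-mutation variants displayed on the E. coli surface, counted by deep sequencing, each peptide's frequency after selection divided by its frequency in the unselected input library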;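 note: frequency after pTyr selection over input frequency; kinase dosed for 20-30% of maximal phosphorylation in three min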
measuredMetric: phosphorylation enrichment

residueCodes: PKGWNYELPAT [PROM1_Y34_A31G]
measuredMetric: phosphorylation enrichment
observedValue: 0.698
//
residueCodes: PSSNLYYRCLT [CNGA3_Y168_W171C]
measuredMetric: phosphorylation enrichment
observedValue: 2.31
//
residueCodes: QGFDTYFGFLL [ARSB_Y165_R160Q_YF]
measuredMetric: phosphorylation enrichment
observedValue: 4.81
//
residueCodes: TGILLHGLASR [QARS1_Y57_Y57H]
measuredMetric: phosphorylation enrichment
observedValue: 0.488
//
residueCodes: KEINDYVEKGT [SERPINA1_Y184_Q180E]
measuredMetric: phosphorylation enrichment
observedValue: 0.75
//
residueCodes: DFTSRYLNASD [PKHD1_Y828]
measuredMetric: phosphorylation enrichment
observedValue: 0.616
//
residueCodes: LLINKYGLSAH [SCP2_Y151]
measuredMetric: phosphorylation enrichment
observedValue: 0.838
//
residueCodes: YSNKLYYQLEQ [PDPR_Y109]
measuredMetric: phosphorylation enrichment
observedValue: 1.76
//
residueCodes: NTGNFYDLFGG [PTPN11_Y63_D61N_YF]
measuredMetric: phosphorylation enrichment
observedValue: 0.796
//
residueCodes: PIYEGYALPHA [ACTA1_Y171]
measuredMetric: phosphorylation enrichment
observedValue: 1.4
//
residueCodes: MHDSNSVSKGS [PDGFRA_Y849_Y849S]
measuredMetric: phosphorylation enrichment
observedValue: 0.687
//
residueCodes: NTEGGYCCICA [CRELD1_Y328_R329C]
measuredMetric: phosphorylation enrichment
observedValue: 0.878
//
residueCodes: DTKDDYSALSV [IL17RB_Y457_N458S]
measuredMetric: phosphorylation enrichment
observedValue: 0.928
//
residueCodes: DQNVEYKGTVW [FHL1_Y117]
measuredMetric: phosphorylation enrichment
observedValue: 0.938
